System: HCV replicon-containing cells (Huh7/Clone A)
Assay: HCV replicon assay
Assay type: cell-based, Hepatitis C virus
Settings: at 25 μM, 48 hours
Source text: The HCV replicon assay is a cell-culture system that mimics in vivo HCV replication and provides a system to study HCV replication in vitro. […] Replicon-containing cells autonomously and persistently replicate HCV RNA that can be measured quantitatively by real-time qPCR. Therefore, the replicon system facilitates quantitative assessment of anti-viral activity by monitoring changes in HCV RNA replication in a cell-based assay. […]
I'd appreciate it if you could supply inhibition of HCV replicon RNA values for the items below.

1. CCC[C@H](NC(=O)[C@@H]1[C@H]2CCC[C@H]2CN1C(=O)[C@@H](NC(C(NC(=O)c1cnccn1)C1CCCCC1)C(F)(F)F)C(C)(C)C)C(=O)C(=O)NC1CC1 (single isomer, unassigned) [Formula I isomer C]; 34%
2. CCC[C@H](NC(=O)[C@@H]1[C@H]2CCC[C@H]2CN1C(=O)[C@@H](NC(C(NC(=O)c1cnccn1)C1CCCCC1)C(F)(F)F)C(C)(C)C)C(=O)C(=O)NC1CC1 (single isomer, unassigned) [Formula I isomer D]; 29%
3. CCC[C@H](NC(=O)[C@@H]1[C@H]2CCC[C@H]2CN1C(=O)[C@@H](NC(C(NC(=O)c1cnccn1)C1CCCCC1)C(F)(F)F)C(C)(C)C)C(=O)C(=O)NC1CC1 (single isomer, unassigned) [Formula I isomer A]; 41%

Then there is this molecule:
Item CCC[C@H](NC(=O)[C@@H]1[C@H]2CCC[C@H]2CN1C(=O)[C@@H](NC(C(NC(=O)c1cnccn1)C1CCCCC1)C(F)(F)F)C(C)(C)C)C(=O)C(=O)NC1CC1 (single isomer, unassigned) [Formula I isomer B] : provide inhibition of HCV replicon RNA 33%
